From: patent US8871753B2

# target.or.system: human JAK1 (a.a. 837-1142) (Homo sapiens)
# Construct: human JAK1 (a.a. 837-1142); His tag (N); made in house; host or cells: insect cells (baculovirus)
# Sequence (P23458 849-1154): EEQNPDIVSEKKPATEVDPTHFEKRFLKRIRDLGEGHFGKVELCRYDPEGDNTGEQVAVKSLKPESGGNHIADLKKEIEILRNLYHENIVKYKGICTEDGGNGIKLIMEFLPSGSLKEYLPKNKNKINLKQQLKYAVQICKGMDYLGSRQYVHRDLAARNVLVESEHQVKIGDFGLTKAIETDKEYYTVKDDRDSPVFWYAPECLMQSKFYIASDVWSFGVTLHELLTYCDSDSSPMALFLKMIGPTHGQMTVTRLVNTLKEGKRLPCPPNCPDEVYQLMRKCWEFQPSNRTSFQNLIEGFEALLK
# assay.overview: In vitro JAK kinase assay (HTRF, phosphorylation of a biotinylated peptide), JAK1
# Format: biochemical
# measurement.conditions: Table B1; read-out: JAK1 IC50
Counter-ions that a name gives are not always drawn.
measurement.type: IC50 (nM)

Record excerpt, results attached:
> print(dat)
                                   compound  measured.number
1  CC(C)(C)OC(=O)N1CCN(Cc2ccc3cc2CCc2cccc(c2)Nc2ncc(Cl)c(n2)N3)CC1 [Example B221, bis(trifluoroacetate)]               12
2  Cc1ncoc1C(=O)N1CC[C@H](NC(=O)Nc2ccc3cc2CCc2cncc(c2)Nc2ncc(Cl)c(n2)N3)C1 [Example B273, bis(trifluoroacetate)]              117
3  Cc1cccc(Cl)c1NC(=O)Nc1ccc2cc1CCc1cccc(c1)Nc1ncc(Cl)c(n1)N2 [Example B122, trifluoroacetate]              5.6

1 = CC(=O)Nc1ccc2cc1CCc1cccc(c1)Nc1ncc(Cl)c(n1)N2 [Example B26, trifluoroacetate]
2 = O=C(Nc1ccc2cc1CCc1cccc(c1)Nc1ncc(Cl)c(n1)N2)c1cccs1 [Example B34, trifluoroacetate]
When their IC50 values are compared, which is larger, 1 or 2 ? Lab log: write the label of the selected item as the result.
1
(1: 6.5 nM, 2: 0.85 nM)
